In this section, each of the compounds is paired with its reported MIC.
# Tested on: Providencia rettgeri ATCC 9250
# measurement-protocol: minimal inhibitory concentration, two-fold agar dilution
# Type: cell-based
# protocol-conditions: ATCC9250, Muller-Hinton agar, 37°C, 20 hours, read-out: MIC values against the standard strains

So what does the record say about MIC for CCO/N=C(\C(=O)N[C@@H]1C(=O)N2C(C(=O)[O-])=C(CSc3nc(N)c(N)c(N)[n+]3CC)CS[C@H]12)c1nsc(N)n1 ?
≤ 8 ng/mL

Also C[n+]1c(SCC2=C(C(=O)[O-])N3C(=O)[C@@H](NC(=O)/C(=N\OC(C)(C)C(=O)O)c4csc(N)n4)[C@H]3SC2)nc(N)c2ccoc21 ?
≤ 8 ng/mL

Next record, please: CCO/N=C(\C(=O)N[C@@H]1C(=O)N2C(C(=O)[O-])=C(CSc3nc(N)cc(NC)[n+]3C)CS[C@H]12)c1csc(N)n1
≤ 8 ng/mL

CC[C@@H](O/N=C(\C(=O)N[C@@H]1C(=O)N2C(C(=O)[O-])=C(CSc3nc(N)cc[n+]3N)CS[C@H]12)c1csc(N)n1)C(=O)O ?
≤ 8 ng/mL

And what about the compound CCO/N=C(\C(=O)N[C@@H]1C(=O)N2C(C(=O)[O-])=C(CSc3nc(N)cc[n+]3C)CS[C@H]12)c1csc(N)n1 ?
≤ 8 ng/mL

Next compound: CNc1cc(N)nc(SCC2=C(C(=O)[O-])N3C(=O)[C@@H](NC(=O)/C(=N\OC(C)(C)C(=O)O)c4csc(N)n4)[C@H]3SC2)[n+]1C
≤ 8 ng/mL

Another: CCO/N=C(\C(=O)N[C@@H]1C(=O)N2C(C(=O)[O-])=C(CSc3nc(N)cc(OC)[n+]3C)CS[C@H]12)c1csc(N)n1
≤ 8 ng/mL

Now the same for CN(C)c1cc(N)nc(SCC2=C(C(=O)[O-])N3C(=O)[C@@H](NC(=O)/C(=N\OC(C)(C)C(=O)O)c4csc(N)n4)[C@H]3SC2)[n+]1C
≤ 8 ng/mL

* * *

Measured MIC by item
# System: Shigella sonnei ATCC 11060
# measurement-protocol: minimal inhibitory concentration, two-fold agar dilution
# Format: cell-based
# protocol-conditions: ATCC11060, Muller-Hinton agar, 37°C, 20 hours, read-out: MIC values against the standard strains
Only the number, expressed in µg/mL, is required.

Reference set, count: 4
compound | unit-info | reported-result
CC(C)(O/N=C(\C(=O)N[C@@H]1C(=O)N2C(C(=O)[O-])=C(CSc3nc(N)cc[n+]3N)CS[C@H]12)c1csc(N)n1)C(=O)O [Example 43] | µg/mL | 0.063
CNc1cc(N)nc(SCC2=C(C(=O)[O-])N3C(=O)[C@@H](NC(=O)/C(=N\OC(C)(C)C(=O)O)c4csc(N)n4)[C@H]3SC2)[n+]1C [Example 35] | µg/mL | 0.063
CCO/N=C(\C(=O)N[C@@H]1C(=O)N2C(C(=O)[O-])=C(CSc3nc(N)cc[n+]3C)CS[C@H]12)c1nsc(N)n1 [Example 6] | µg/mL | 0.25
CC(C)(O/N=C(\C(=O)N[C@@H]1C(=O)N2C(C(=O)[O-])=C(C[n+]3ccccc3)CS[C@H]12)c1csc(N)n1)C(=O)O [Ceftazidime, reference compound] | µg/mL | 0.13

Provide value of MIC for this record tested with Shigella sonnei ATCC 11060: CCO/N=C(\C(=O)N[C@@H]1C(=O)N2C(C(=O)[O-])=C(CSc3nc(N)c(N)c(N)[n+]3C)CS[C@H]12)c1nsc(N)n1 [Example 5]
0.25

Also check CC[C@@H](O/N=C(\C(=O)N[C@@H]1C(=O)N2C(C(=O)[O-])=C(CSc3nc(N)cc[n+]3N)CS[C@H]12)c1csc(N)n1)C(=O)O [Example 88-b]
0.063

Quick one: Nc1cc[n+](N)c(SCC2=C(C(=O)[O-])N3C(=O)[C@@H](NC(=O)/C(=N\OCC(=O)O)c4csc(N)n4)[C@H]3SC2)n1 [Example 75]
0.016

Then what about the compound Cc1c[n+](N)c(SCC2=C(C(=O)[O-])N3C(=O)[C@@H](NC(=O)/C(=N\OC(C)(C)C(=O)O)c4csc(N)n4)[C@H]3SC2)nc1N [Example 57] ?
0.063

Also check CO/N=C(\C(=O)N[C@@H]1C(=O)N2C(C(=O)[O-])=C(CSc3nc(N)cc[n+]3C)CS[C@H]12)c1csc(N)n1 [Example 8]
0.13

Here is the next compound: CC[n+]1c(SCC2=C(C(=O)[O-])N3C(=O)[C@@H](NC(=O)/C(=N\OC(C)(C)C(=O)O)c4csc(N)n4)[C@H]3SC2)nc(N)c(N)c1N [Example 11]
1

Also, CCO/N=C(\C(=O)N[C@@H]1C(=O)N2C(C(=O)[O-])=C(CSc3nc(N)cc[n+]3C)CS[C@H]12)c1csc(N)n1 [Example 4] please.
0.25

Please give the result for C[n+]1c(-c2ccccc2)cc(N)nc1SCC1=C(C(=O)[O-])N2C(=O)[C@@H](NC(=O)/C(=N\OC(C)(C)C(=O)O)c3csc(N)n3)[C@H]2SC1 [Example 20] too.
0.25
